Where do the numbers come from? From patent US11440923B2.

Target: MCL-1 (Homo sapiens (Human), UniProt Q07820, K194A/K197A/R201A)
Sequence (Q07820 whole entry K194A/K197A/R201A, looked up): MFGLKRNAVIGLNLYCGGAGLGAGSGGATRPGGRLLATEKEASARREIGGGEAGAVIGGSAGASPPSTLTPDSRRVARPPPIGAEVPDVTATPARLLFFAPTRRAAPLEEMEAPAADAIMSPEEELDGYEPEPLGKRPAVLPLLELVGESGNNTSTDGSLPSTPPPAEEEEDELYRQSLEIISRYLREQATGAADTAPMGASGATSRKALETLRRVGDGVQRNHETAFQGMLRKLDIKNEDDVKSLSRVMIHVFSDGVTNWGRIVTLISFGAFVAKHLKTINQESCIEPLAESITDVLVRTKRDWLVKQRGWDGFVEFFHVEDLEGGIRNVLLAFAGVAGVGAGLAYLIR
Experiment: Protein-compound interaction assay (SPR assay, Assay 9)
Details: KD (geometric mean), SPR, 25° C.
value_kind: Kd (nM)

* CCc1c2c(nn1C)C(CCO)OCCCCn1c(C(=O)O)c(CCCOc3cccc4cc(F)ccc34)c3ccc(Cl)c-2c31 (single isomer, unassigned; enantiomer 1) | 2.3
* CCc1c2c(nn1C)C(CCN1CCOCC1)OCCCCn1c(C(=O)O)c(CCCOc3cccc4cc(F)ccc34)c3ccc(F)c-2c31 (single isomer, unassigned; enantiomer 1) | 0.36
* CCc1c2c(nn1C)C(CCN1CC(F)(F)C1)OCCCCn1c(C(=O)O)c(CCCOc3cccc4cc(F)ccc34)c3ccc(Cl)c-2c31 (single isomer, unassigned; (+)) | 0.33
